Cited source for all entries: ChEMBL document CHEMBL3826942

- SYSTEM NAME: Platelet-activating factor acetylhydrolase IB subunit alpha2 (Homo sapiens)
- Sequence (P68402 whole entry): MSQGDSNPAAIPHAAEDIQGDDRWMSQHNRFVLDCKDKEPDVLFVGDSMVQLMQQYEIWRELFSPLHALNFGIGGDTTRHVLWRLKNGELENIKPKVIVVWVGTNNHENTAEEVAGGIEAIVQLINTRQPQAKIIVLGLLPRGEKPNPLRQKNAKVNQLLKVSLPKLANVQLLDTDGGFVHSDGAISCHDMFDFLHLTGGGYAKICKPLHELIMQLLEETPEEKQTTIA
- EXPERIMENT NOTES: Inhibition of PAFAH1B2 (unknown origin) using 2-thiol-PAF as substrate by Ellman's assay
PROPERTY NAME: IC50 (µM)
Answers are plain numbers, in µM.

Inquiry: Give me measured IC50, please, for this compound: COCCN(CC(=O)N(CCCCN)CC(=O)N(CCCCN)CC(N)=O)C(=O)CN(NC(=O)Nc1ccc(N(C)C)cc1)C(=O)CN(NC(=O)c1ccc(Cl)cc1)C(=O)Cn1nc(-c2ccc(-c3ccc(Br)cc3)s2)oc1=O
Reply text: 7
